All figures here come from ChEMBL document CHEMBL1641425.

- PROTOCOL_DETAILS: Half life in mouse microsomes
- Type: ADME, Microsome
EXPERIMENTAL_ENDPOINT: half-life (min)
API: value field is a number in min; no unit string.

Ask: Which measured half-life value corresponds to CN(C)[C@@H]1CCN(c2ccc(Cl)c(Cl)c2)c2ccccc21 ?
Result: 0.3

Ask: Give its half-life value. Item: CN[C@H]1Cc2ccccc2N(c2ccc(Cl)c(Cl)c2)C1
Result: 20

Ask: For N[C@@H]1CCN(c2ccc(Cl)c(Cl)c2)c2ccccc21 , what is its reported half-life?
Result: 201

Ask: Give its half-life value. Item: CNC1CCN(c2ccc(Cl)c(Cl)c2)c2ccccc21 (stereo not given)
Result: 22

* * *

Hi there, I'd appreciate the recorded half-life for every entry that follows.
- PROTOCOL_DETAILS: Half life in human microsomes
- Type: ADME, Microsome
API: value field is a number in h; no unit string.

Ask: Look at this compound and give its reported half-life. CN[C@H]1Cc2ccccc2N(c2ccc(Cl)c(Cl)c2)C1
Result: 3.95

Ask: Report half-life for CNC1CCN(c2ccc(Cl)c(Cl)c2)c2ccccc21 (stereo not given) please.
Result: 3.32

* * *

- TEST_TARGET: Voltage-gated inwardly rectifying potassium channel KCNH2 (Homo sapiens)
- Sequence (Q12809 whole entry): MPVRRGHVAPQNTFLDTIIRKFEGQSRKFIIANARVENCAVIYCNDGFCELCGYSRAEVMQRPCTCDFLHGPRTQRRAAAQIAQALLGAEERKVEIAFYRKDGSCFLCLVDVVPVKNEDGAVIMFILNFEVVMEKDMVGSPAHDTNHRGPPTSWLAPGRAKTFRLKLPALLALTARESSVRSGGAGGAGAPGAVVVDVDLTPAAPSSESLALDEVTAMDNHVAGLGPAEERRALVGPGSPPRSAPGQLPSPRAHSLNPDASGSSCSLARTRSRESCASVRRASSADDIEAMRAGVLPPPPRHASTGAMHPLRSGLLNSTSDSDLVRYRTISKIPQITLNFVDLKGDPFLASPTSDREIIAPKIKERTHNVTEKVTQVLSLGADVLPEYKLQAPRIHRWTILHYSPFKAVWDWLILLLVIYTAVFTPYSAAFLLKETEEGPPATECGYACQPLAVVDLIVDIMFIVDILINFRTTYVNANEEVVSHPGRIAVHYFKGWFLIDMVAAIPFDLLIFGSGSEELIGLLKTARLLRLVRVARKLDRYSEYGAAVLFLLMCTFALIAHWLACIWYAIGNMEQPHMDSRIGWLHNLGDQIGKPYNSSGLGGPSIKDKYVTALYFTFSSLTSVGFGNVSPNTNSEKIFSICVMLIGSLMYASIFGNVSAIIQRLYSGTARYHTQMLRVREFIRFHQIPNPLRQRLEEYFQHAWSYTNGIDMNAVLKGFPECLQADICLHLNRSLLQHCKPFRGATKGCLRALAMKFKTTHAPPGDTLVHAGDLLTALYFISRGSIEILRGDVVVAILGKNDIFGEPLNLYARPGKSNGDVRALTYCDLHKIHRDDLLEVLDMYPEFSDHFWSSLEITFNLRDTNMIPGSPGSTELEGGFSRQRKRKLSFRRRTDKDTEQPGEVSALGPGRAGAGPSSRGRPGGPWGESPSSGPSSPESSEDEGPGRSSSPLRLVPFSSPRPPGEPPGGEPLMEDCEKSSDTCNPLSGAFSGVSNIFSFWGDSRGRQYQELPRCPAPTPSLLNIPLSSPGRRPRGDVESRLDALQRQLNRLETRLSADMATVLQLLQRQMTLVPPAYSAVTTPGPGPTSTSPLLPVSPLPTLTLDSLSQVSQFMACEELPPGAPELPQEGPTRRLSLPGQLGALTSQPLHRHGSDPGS
EXPERIMENTAL_ENDPOINT: IC50 (µM)
# unit: µM | format: bare number

Ask: IC50 lookup needed for N[C@@H]1CCN(c2ccc(Cl)c(Cl)c2)c2ccccc21 , thanks.
Result: 3.5

Ask: Suppose we examine the compound CN[C@@H]1CCN(c2ccc(Cl)c(Cl)c2)c2ccccc21 ; what IC50 value has been reported?
Result: 3.25

Ask: What value of IC50 has been recorded for this entry: CNC1CCN(c2ccc(Cl)c(Cl)c2)c2ccccc21 (stereo not drawn)
Result: 7.8

* * *

pIC50: −log10 of the molar value.
For reference, pIC50 measured on Cytochrome P450 2C9 (Homo sapiens):

Ask: Form field: reported pIC50 of CN[C@@H]1CCN(c2ccc(Cl)c(Cl)c2)c2ccccc21
Result: < 4.60

Ask: Dear colleague, I am looking for the recorded pIC50 of the following molecule: CN(C)[C@@H]1CCN(c2ccc(Cl)c(Cl)c2)c2ccccc21
Result: 6.60

Ask: For the molecule shown here, N[C@@H]1CCN(c2ccc(Cl)c(Cl)c2)c2ccccc21 , give the reported pIC50.
Result: < 4.60

* * *

- TEST_TARGET: Sodium-dependent noradrenaline transporter (Homo sapiens, UniProt P23975)
- Sequence (P23975 whole entry): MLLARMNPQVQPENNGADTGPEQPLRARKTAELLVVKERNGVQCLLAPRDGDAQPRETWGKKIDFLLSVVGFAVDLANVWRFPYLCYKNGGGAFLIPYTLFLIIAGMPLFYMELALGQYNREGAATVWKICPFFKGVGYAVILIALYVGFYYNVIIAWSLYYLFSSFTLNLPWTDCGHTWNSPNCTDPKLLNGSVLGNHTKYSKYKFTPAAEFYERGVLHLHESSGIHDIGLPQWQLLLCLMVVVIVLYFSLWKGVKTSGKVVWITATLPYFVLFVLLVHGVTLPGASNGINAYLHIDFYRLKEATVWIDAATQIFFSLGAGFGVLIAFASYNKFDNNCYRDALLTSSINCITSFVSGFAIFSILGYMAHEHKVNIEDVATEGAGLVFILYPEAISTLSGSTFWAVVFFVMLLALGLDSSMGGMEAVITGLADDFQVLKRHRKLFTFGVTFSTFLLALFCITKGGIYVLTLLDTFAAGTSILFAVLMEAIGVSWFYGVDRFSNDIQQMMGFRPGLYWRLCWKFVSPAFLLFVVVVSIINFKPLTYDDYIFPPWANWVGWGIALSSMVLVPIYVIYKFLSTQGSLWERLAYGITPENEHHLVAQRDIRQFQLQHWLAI
- PROTOCOL_DETAILS: Inhibition of human recombinant norepinephrine transporter
EXPERIMENTAL_ENDPOINT: IC50 (nM)
Lab book: enter the figure in nM, no units written.

Ask: Fill blank: measured IC50 of the compound NC1Cc2ccccc2N(c2ccc(Cl)c(Cl)c2)C1 (stereo unspecified) is ____.
Result: 2600

Ask: Reported IC50 for NC1CCN(c2ccc(Cl)c(Cl)c2)c2ccccc21 (stereo unspecified) : what is it?
Result: 926

Ask: I have this compound here, CN[C@H]1Cc2ccccc2N(c2ccc(Cl)c(Cl)c2)C1 , and I need its recorded IC50.
Result: 1250

Ask: Which IC50 is reported for this compound? CN(C)[C@@H]1CCN(c2ccc(Cl)c(Cl)c2)c2ccccc21
Result: 1180

Ask: IC50 for N[C@H]1Cc2ccccc2N(c2ccc(Cl)c(Cl)c2)C1 ?
Result: 1850

Ask: Value lookup for IC50; key = CN(C)[C@H]1Cc2ccccc2N(c2ccc(Cl)c(Cl)c2)C1
Result: 3090

* * *

- TEST_TARGET: Sodium-dependent serotonin transporter (Homo sapiens, UniProt P31645)
- Sequence (P31645 whole entry): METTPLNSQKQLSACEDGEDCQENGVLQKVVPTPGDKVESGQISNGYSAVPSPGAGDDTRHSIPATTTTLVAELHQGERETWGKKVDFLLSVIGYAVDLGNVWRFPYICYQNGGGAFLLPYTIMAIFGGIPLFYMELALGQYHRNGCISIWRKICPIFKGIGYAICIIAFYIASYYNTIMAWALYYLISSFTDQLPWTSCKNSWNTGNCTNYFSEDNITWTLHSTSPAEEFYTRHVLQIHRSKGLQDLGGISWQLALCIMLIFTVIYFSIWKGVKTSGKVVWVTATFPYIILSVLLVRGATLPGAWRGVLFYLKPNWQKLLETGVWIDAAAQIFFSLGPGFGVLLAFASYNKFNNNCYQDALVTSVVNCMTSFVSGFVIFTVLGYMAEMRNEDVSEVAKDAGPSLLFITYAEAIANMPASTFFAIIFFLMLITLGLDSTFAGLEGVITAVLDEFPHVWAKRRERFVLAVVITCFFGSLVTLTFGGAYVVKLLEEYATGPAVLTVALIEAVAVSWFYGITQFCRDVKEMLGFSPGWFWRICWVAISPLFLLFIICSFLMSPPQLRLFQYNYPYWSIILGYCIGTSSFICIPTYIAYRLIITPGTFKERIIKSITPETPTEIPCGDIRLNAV
- PROTOCOL_DETAILS: Inhibition of human recombinant 5HT transporter
Provide the reported IC50 of each item.
I only need the number, in nM, no unit after it.

Ask: Can you share its IC50? I mean this molecule: NC1Cc2ccccc2N(c2ccc(Cl)c(Cl)c2)C1 (stereo unspecified)
Result: 2550

Ask: Request the reported IC50 associated with N[C@@H]1CCN(c2ccc(Cl)c(Cl)c2)c2ccccc21
Result: 116

Ask: Quick one: IC50 of CN[C@H]1Cc2ccccc2N(c2ccc(Cl)c(Cl)c2)C1 ?
Result: 128

Ask: For CN(C)[C@H]1Cc2ccccc2N(c2ccc(Cl)c(Cl)c2)C1 , what is its reported IC50?
Result: 5560

Ask: Recorded IC50 for CNC1Cc2ccccc2N(c2ccc(Cl)c(Cl)c2)C1 (stereo unspecified) , please?
Result: 985

Ask: State the recorded IC50 for this entry: NC1CCN(c2ccc(Cl)c(Cl)c2)c2ccccc21 (stereo unspecified)
Result: 650

* * *

EXPERIMENTAL_ENDPOINT: IC50

Ask: What is its IC50 for Cytochrome P450 3A4 (Homo sapiens)? Entry: CN(C)[C@@H]1CCN(c2ccc(Cl)c(Cl)c2)c2ccccc21
Result: > 25 µM

* * *

- TEST_TARGET: Sodium-dependent dopamine transporter (Homo sapiens)
- Sequence (Q01959 whole entry): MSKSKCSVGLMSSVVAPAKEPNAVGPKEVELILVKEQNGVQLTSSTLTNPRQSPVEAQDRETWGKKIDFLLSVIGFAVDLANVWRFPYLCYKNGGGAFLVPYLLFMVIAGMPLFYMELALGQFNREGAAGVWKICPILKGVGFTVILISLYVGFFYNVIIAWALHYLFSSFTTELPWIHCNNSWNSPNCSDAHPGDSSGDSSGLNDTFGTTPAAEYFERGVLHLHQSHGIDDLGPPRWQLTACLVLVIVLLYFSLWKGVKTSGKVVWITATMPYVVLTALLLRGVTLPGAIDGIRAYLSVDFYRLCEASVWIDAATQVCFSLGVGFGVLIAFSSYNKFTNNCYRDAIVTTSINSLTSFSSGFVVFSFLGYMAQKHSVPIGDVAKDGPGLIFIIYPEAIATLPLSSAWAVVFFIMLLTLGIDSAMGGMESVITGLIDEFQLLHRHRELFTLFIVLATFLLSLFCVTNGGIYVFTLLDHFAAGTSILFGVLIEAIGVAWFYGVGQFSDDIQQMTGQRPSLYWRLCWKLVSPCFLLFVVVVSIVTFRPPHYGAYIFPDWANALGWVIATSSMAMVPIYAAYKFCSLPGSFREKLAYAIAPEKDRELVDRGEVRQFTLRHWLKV
- PROTOCOL_DETAILS: Inhibition of human recombinant dopamine transporter
Kindly supply the reported IC50 values for the records listed here.
Please format your answer as a value with the unit trailing.

Ask: For the molecule shown here, CN[C@H]1Cc2ccccc2[C@@H](c2ccc(Cl)c(Cl)c2)C1 , give the reported IC50.
Result: 72 nM

Ask: Look up IC50 for this molecule: CN(C)C1Cc2ccccc2N(c2ccc(Cl)c(Cl)c2)C1 (stereo not drawn)
Result: 122 nM

Ask: Reported IC50 for CN[C@H]1Cc2ccccc2N(c2ccc(Cl)c(Cl)c2)C1 : what is it?
Result: 100 nM

* * *

- PROTOCOL_DETAILS: Half life in human microsomes
- Type: ADME, Microsome
EXPERIMENTAL_ENDPOINT: half-life

Ask: Give its half-life value. Item: N[C@@H]1CCN(c2ccc(Cl)c(Cl)c2)c2ccccc21
Result: > 300 min

Ask: May I ask what half-life has been recorded for CN[C@@H]1CCN(c2ccc(Cl)c(Cl)c2)c2ccccc21 ?
Result: > 300 min

Ask: What value of measured half-life is listed for CN(C)[C@@H]1CCN(c2ccc(Cl)c(Cl)c2)c2ccccc21 ?
Result: > 300 min
